molecular target: PEG-3 (UniProt Q6IN02); assay: Peg3 promoter luciferase inhibitors, potency, dose response, cell-based, HeLa, CREF/GAPDH counter-screen panel (AID 624167); details: CREF/GAPDH counter-screens; HeLa PEG-Prom luciferase reporter, overnight, run 1, dose range 1, at 100 µM (top of the series) unless noted
Sequence (Q6IN02 whole entry, looked up): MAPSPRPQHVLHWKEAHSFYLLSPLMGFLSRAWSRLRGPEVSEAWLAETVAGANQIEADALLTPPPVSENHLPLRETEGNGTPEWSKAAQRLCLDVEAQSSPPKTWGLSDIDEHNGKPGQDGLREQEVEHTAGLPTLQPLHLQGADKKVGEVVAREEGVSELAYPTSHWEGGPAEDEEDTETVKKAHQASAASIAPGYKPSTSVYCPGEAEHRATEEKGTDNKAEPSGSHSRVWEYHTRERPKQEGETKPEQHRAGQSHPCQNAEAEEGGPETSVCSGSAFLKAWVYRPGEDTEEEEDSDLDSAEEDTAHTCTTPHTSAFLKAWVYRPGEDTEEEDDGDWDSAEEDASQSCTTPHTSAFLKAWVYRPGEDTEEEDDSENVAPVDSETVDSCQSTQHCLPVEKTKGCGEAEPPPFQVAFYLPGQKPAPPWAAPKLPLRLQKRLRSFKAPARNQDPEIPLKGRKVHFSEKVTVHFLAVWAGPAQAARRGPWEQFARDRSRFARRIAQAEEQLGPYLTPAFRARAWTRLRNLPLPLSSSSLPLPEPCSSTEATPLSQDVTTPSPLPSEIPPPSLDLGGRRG
PROPERTY_NAME: inhibition (%)
Answers are plain numbers, in %.

>  <COMPOUND>
CCOC(=O)c1c(SCCN2CCCCC2)n(-c2ccccc2)c(=S)n(-c2ccccc2)c1=O

>  <inhibition (%)>
97.7

$$$$
>  <COMPOUND>
c1cncc(-c2nc(NCC3COc4ccccc4O3)c3ccccc3n2)c1 (stereo not drawn)

>  <inhibition (%)>
101

$$$$
>  <COMPOUND>
CCn1cc(C(=O)NCCC(C)C)c(=O)c2cc(F)c(N3CCN(C(=O)c4ccco4)CC3)cc21

>  <inhibition (%)>
32.2

$$$$
>  <COMPOUND>
COc1ccc(CCn2c(=N)c(C(=O)NC3CCCC3)cc3c(=O)n4cccc(C)c4nc32)cc1

>  <inhibition (%)>
44.4

$$$$
>  <COMPOUND>
O=C(Nc1nc2cc3c(cc2s1)OCCO3)c1ccco1

>  <inhibition (%)>
97.8

$$$$

Could you report inhibition for every entry in the following list?
1. OCCN1CCN(C2CCC(c3ccc(F)cc3)c3ccc(F)cc32)CC1 (stereo not drawn)
2. CCOC(=O)c1c(NC(=O)CSc2nnnn2-c2ccccc2OCC)sc2c1CC(C)(C)NC2(C)C

Ans.
102
98.8

###

experiment: caspase-8 TRAIL sensitization, hit retest, confirmation, cell-based, NB7+caspase-8, with/without TRAIL, luminescence panel (AID 651596); details: NB7 neuroblastoma + caspase-8, without TRAIL, luminescence viability, without TRAIL, mean of runs, at 10 µM
In this scheme, each record receives a class according to its activity; the ranges are group A: < 50%; group B: ≥ 50% and < 70%; group C: ≥ 70%

As a guide, the following entries are already answered.
>  <MOLECULE>
O=C(Nc1ccccc1C(=O)N/N=C/c1ccncc1)c1ccccc1

>  <LABEL_VALUE>
group C

$$$$
>  <MOLECULE>
C/C(=N\NC(=O)c1ccc(O)cc1)c1cccc(NC(=O)c2ccc(Cl)cc2)c1

>  <LABEL_VALUE>
group C

$$$$
>  <MOLECULE>
CCC(C)c1ccc(-c2cc(C(=O)OCC(=O)Nc3cc(C)on3)c3ccccc3n2)cc1 (stereo not given)

>  <LABEL_VALUE>
group C

$$$$
>  <MOLECULE>
O=C(Nc1ccc(NC(=O)C2CC2)cc1)c1ccco1

>  <LABEL_VALUE>
group A

$$$$
>  <MOLECULE>
CCOC(=O)c1c(C)[nH]c(C(=O)OCC(=O)Nc2sccc2C(N)=O)c1C

>  <LABEL_VALUE>
group B

$$$$
>  <MOLECULE>
Nc1nc(N)c2cc(CNc3ccc(Cl)c(Cl)c3)ccc2n1

>  <LABEL_VALUE>
group C

$$$$
>  <MOLECULE>
COc1ccc2oc(-c3ccc(NC(=O)c4ccc(N5CCOCC5)c([N+](=O)[O-])c4)cc3)nc2c1

>  <LABEL_VALUE>
group A

$$$$
>  <MOLECULE>
COc1ccc(C(=O)Nc2cccc(OC)c2)cc1

>  <LABEL_VALUE>
group B

$$$$

Qu. GET /class?item= `Nc1cc2sc(-c3ccc(C(=O)O)cc3)nc2cc1Cl`
Ans. group A

###

assay: inhibitors of PAF-induced NFkB signaling in CF airway cells, dose response, cell-based, uHTS hits, panel, cytotoxicity readout (AID 624344); settings: CF bronchial epithelial cells, PAF-induced NFkB reporter inhibition, with PAF, run 1; at 79 µM (top of the series) unless noted
PROPERTY_NAME: inhibition (%)
Give bare numbers, in %.

Please review the entries below; each comes with its answer.
>  <MOLECULE>
COc1ccc(-c2csc3ncnc(NCCO)c23)cc1

>  <inhibition (%)>
104

$$$$
>  <MOLECULE>
COc1cc(O)c(CC=C(C)C)c(O)c1C(=O)CCc1ccc(O)cc1

>  <inhibition (%)>
112

$$$$
>  <MOLECULE>
COc1ccc(CN(CCC(c2ccc(F)cc2)C2CCOC(C)(C)C2)C(=O)c2ccco2)cc1 (stereo unspecified)

>  <inhibition (%)>
105

$$$$
>  <MOLECULE>
COc1ccc(-c2cn[nH]c2-c2ccc(OC)cc2O)cc1

>  <inhibition (%)>
103

$$$$
>  <MOLECULE>
O=C(NCc1ccco1)c1nc2c(nnn2Cc2ccccc2Cl)c(=O)[nH]1

>  <inhibition (%)>
115

$$$$

Could you report inhibition for every entry in the following list?
1. CS(=O)(=O)Nc1cccc(-c2cc(NC=O)c3ncc(-c4ccc(F)cc4)n3c2)c1
2. Cc1ccc(C(=O)Nc2cccc(C(F)(F)F)c2)cc1NC(=O)c1nccnc1N
3. CC(C)c1nc(Cl)c(C#N)c2c1CCCC2
4. COc1ccc(S(=O)(=O)c2c(O)c3ccc(C(=O)Nc4ccccc4Cl)cc3[nH]c2=O)cc1
5. CN(Cc1ccccc1)c1ncnc(N)c1[N+](=O)[O-]
6. COc1ccc(-c2ccccc2[C@H]2[C@@H]3C=CC[C@@H](C)[C@@H]3C(=O)N2Cc2ccccc2)cc1

Ans.
1: 84; 2: 75.2; 3: 96.5; 4: 96.9; 5: 115; 6: 102

###

test system: Rat fibroblasts (CREF); experiment: Peg3 promoter luciferase inhibitors, potency, dose response, cell-based, HeLa, CREF/GAPDH counter-screen panel (AID 624167); details: CREF/GAPDH counter-screens; run 2, dose range 1, at 100 µM (top of the series)
PROPERTY_NAME: inhibition (%)
One number for each entry, in %.

Could you report inhibition for every entry in the following list?
1. C(=Cc1cnc2ccccc2n1)c1ccc2c(c1)OCO2
2. COc1ccc(Nc2ncnc3ccc(Br)cc23)c(OC)c1
3. COc1ccc(/C=N/Nc2nncc3ccccc23)cc1

Ans.
1. 95.7
2. 38.7
3. 98.9

Could you report inhibition for every entry in the following list?
1. CCCCCCCn1c(=N)n(CC(=O)c2ccco2)c2ccccc21
2. COc1ccc(N(C(=O)CCl)C(C(=O)NC2CCCCC2)c2cccnc2)cc1 (configuration not stated)
3. Cc1ccc(C(=O)Nc2cc3ccccc3oc2=O)cc1

Ans.
1: 98; 2: 94.1; 3: 87.1

Could you report inhibition for every entry in the following list?
1. CN(O)C(=S)c1ccccc1
2. CCCCC(=O)NC(c1ccc(OC)cc1)c1ccc2cccnc2c1O (configuration not stated)
3. C/C(=N\NC(=O)c1n[nH]c2c1CCC2)c1cccs1
4. CCc1ccc(/C=C2\SC(=S)N(CCCC(=O)Nc3cc(C)on3)C2=O)cc1
5. COc1cc(SC)ccc1C(=O)Nc1ncc(C)s1
6. COC1=C(Br)C(=O)c2ncccc2C1=O

Ans.
1: -19.9; 2: 28.7; 3: 94.4; 4: 27.4; 5: 97.3; 6: 97.8

###

Answer each item with its documented inhibition.
target: Caspase-3 (Homo sapiens) (UniProt P42574); assay: caspase-3 protease inhibitors, confirmation, selectivity assay for SENP inhibitor project, biochemical, single concentration (AID 488918); settings: purified caspase-3, Z-DEVD-aminoluciferin luminescence, 60 min; at 12.5 µM; stronger effect = higher value;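 further: plate controls were enzyme with DMSO for no effect and wells without caspase-3 for full effect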
Sequence (P42574 28-227 limits assumed): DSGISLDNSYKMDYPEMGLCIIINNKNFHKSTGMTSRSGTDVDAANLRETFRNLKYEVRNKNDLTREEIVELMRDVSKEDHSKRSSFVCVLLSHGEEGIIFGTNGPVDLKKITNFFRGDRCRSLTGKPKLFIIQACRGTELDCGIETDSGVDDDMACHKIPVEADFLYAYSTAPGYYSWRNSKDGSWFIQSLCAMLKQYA
Some of the results follow.
Answers are plain numbers, in %.

Could you report inhibition for every entry in the following list?
1. c1c2c(cc3sc(N4CCCCC4)nc13)OCCO2
2. C=CCn1c(C)cc(C2=NNC(=NCC)SC2)c1C
3. COc1ccc(C(=O)Nc2ccc(C3(C#N)CCCC3)cc2)cc1OC
4. Cc1ccc(NC(=O)c2sccc2C)cc1[N+](=O)[O-]
5. Cc1ccc(OC(=O)c2cc3ccccc3o2)cc1
6. COc1cc(/C=C(\C#N)c2nc3ccccc3[nH]2)ccc1O
7. O=C1C(=O)N(CCCN2CCOCC2)C(c2ccc([N+](=O)[O-])cc2)/C1=C(\O)c1ccc2c(c1)OCCO2 (configuration not stated)

Ans.
1: 97.5; 2: 1.7; 3: 91.9; 4: 81; 5: 46.9; 6: 93.4; 7: -4.4

Could you report inhibition for every entry in the following list?
1. Cc1ccc(O)c(NC(=O)c2cc(-c3ccco3)on2)c1
2. Cc1cccc(NC(=O)c2ccc3ccccc3n2)n1
3. O=c1c2c(nc3cc(-c4cccc(Cl)c4)[nH]n13)CCCC2
4. O=c1[nH]c(/C=C/c2cccc(Br)c2)nc2ccccc12
5. CCCOc1ccc(C(=O)NCCc2ccccc2)cc1

Ans.
[44.4, 65.2, 41.6, 17.6, 78]

###

test system: Rat fibroblasts (CREF); assay: Peg3 promoter luciferase inhibitors, potency, dose response, cell-based, HeLa, CREF/GAPDH counter-screen panel (AID 624167); settings: CREF/GAPDH counter-screens; run 2, dose range 1, at 100 µM (top of the series)
Answer each item with its documented inhibition.
One number for each entry, in %.

Please review the entries below; each comes with its answer.
>  <COMPOUND>
COc1ccc(C(NC(=O)C(C)C)c2ccc3cccnc3c2O)cc1 (stereo unspecified)

>  <UNIT_DESCRIPTOR>
%

>  <MEASURED>
61.5

$$$$
>  <COMPOUND>
CC1CCN(c2ccc(-c3cccc(NC(=O)C(F)(F)F)c3)nn2)CC1

>  <UNIT_DESCRIPTOR>
%

>  <MEASURED>
99.5

$$$$
>  <COMPOUND>
CC1=NOC(=O)/C1=C\c1ccc(-c2ccccc2Br)o1

>  <UNIT_DESCRIPTOR>
%

>  <MEASURED>
53.8

$$$$
>  <COMPOUND>
Cc1csc(NC(=O)c2ccc(N3CCCC3=O)cc2)n1

>  <UNIT_DESCRIPTOR>
%

>  <MEASURED>
90.4

$$$$
>  <COMPOUND>
C=CCn1c(C)cc(C(=O)CN2C(=O)c3ccccc3S2(=O)=O)c1C

>  <UNIT_DESCRIPTOR>
%

>  <MEASURED>
96.4

$$$$

Attention now turns to another entry.
Qu. I have this compound here, `COc1cccc(NC(=O)c2nc(S(C)(=O)=O)ncc2Cl)c1` , and I need its recorded inhibition.
Ans. 99.1
